Reported Inhibition Rifampicine is given for each of the following molecules.
Target: OATP1B1 (Homo sapiens, UniProt Q9Y6L6)
Sequence (Q9Y6L6 whole entry): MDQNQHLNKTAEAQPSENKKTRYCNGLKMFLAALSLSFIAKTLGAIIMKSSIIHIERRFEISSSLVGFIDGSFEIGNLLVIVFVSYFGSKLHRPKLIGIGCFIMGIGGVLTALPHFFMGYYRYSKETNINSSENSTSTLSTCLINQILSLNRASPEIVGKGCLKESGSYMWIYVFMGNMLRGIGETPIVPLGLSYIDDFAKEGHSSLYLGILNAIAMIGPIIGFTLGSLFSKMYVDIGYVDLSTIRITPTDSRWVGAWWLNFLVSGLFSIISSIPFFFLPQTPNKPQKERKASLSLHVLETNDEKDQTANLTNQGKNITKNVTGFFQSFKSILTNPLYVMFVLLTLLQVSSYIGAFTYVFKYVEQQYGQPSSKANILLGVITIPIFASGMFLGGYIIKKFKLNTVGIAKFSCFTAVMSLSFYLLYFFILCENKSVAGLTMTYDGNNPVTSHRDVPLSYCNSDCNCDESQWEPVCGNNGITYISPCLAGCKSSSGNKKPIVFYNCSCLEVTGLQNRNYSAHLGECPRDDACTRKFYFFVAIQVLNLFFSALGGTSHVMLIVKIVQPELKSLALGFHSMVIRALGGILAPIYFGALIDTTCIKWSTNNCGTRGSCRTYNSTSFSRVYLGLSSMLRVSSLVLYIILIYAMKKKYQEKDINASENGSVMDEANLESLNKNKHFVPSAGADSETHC
Test: Uptake into stable transfected OATP1B1 HEK 293 cells
Format: cell-based
Settings: uptake into OATP1B1-HEK 293 cells
Observable: Inhibition Rifampicine (% inhibition)

- Molecule: "CCOCCOCCOc1ccc(CCC[C@@H](C(=O)O)N2CCN([C@@H](CO)C(=O)[O-])CCN([C@H](CO)C(=O)[O-])CCN([C@@H](CO)C(=O)[O-])CC2)cc1.[Gd+3] [Example 35]"
  Observable: "Inhibition Rifampicine"
  Readout Number: 87
- Molecule: "CCOCCOCCOc1ccc(CC(C(=O)O)N2CCN(CC(=O)[O-])CCN(CC(=O)[O-])CCN(CC(=O)[O-])CC2)nc1.[Gd+3] (centres unmarked) [Example 23]"
  Observable: "Inhibition Rifampicine"
  Readout Number: 0
- Molecule: "O=C([O-])CN1CCN(C(Cc2ccc(OCC(F)(F)C(F)F)cc2)C(=O)O)CCN(CC(=O)[O-])CCN([C@@H](CO)C(=O)[O-])CC1.[Gd+3] (mixture of isomers) [Example 33]"
  Observable: "Inhibition Rifampicine"
  Readout Number: 88
- Molecule: "CCCCOc1cccc(CCC[C@@H](C(=O)O)N2CCN([C@@H](CO)C(=O)[O-])CCN([C@@H](CO)C(=O)[O-])CCN([C@@H](CO)C(=O)[O-])CC2)c1.[Gd+3] [Example 34]"
  Observable: "Inhibition Rifampicine"
  Readout Number: 96
- Molecule: "CCCOc1ccc(CCC(C(=O)O)N2CCN(CC(=O)[O-])CCN(CC(=O)[O-])CCN(CC(=O)[O-])CC2)cc1.[Gd+3] (centres unmarked) [Example 24]"
  Observable: "Inhibition Rifampicine"
  Readout Number: 87
